Recorded values, source patent US8710085B2.

Assayed System: PI3Kβ (Homo sapiens)
Construct: p110β(2-1070)-His; made in house; host or cells: baculovirus, Tn5 insect cells
Sequence (P42338 with tags, fused parts or gaps): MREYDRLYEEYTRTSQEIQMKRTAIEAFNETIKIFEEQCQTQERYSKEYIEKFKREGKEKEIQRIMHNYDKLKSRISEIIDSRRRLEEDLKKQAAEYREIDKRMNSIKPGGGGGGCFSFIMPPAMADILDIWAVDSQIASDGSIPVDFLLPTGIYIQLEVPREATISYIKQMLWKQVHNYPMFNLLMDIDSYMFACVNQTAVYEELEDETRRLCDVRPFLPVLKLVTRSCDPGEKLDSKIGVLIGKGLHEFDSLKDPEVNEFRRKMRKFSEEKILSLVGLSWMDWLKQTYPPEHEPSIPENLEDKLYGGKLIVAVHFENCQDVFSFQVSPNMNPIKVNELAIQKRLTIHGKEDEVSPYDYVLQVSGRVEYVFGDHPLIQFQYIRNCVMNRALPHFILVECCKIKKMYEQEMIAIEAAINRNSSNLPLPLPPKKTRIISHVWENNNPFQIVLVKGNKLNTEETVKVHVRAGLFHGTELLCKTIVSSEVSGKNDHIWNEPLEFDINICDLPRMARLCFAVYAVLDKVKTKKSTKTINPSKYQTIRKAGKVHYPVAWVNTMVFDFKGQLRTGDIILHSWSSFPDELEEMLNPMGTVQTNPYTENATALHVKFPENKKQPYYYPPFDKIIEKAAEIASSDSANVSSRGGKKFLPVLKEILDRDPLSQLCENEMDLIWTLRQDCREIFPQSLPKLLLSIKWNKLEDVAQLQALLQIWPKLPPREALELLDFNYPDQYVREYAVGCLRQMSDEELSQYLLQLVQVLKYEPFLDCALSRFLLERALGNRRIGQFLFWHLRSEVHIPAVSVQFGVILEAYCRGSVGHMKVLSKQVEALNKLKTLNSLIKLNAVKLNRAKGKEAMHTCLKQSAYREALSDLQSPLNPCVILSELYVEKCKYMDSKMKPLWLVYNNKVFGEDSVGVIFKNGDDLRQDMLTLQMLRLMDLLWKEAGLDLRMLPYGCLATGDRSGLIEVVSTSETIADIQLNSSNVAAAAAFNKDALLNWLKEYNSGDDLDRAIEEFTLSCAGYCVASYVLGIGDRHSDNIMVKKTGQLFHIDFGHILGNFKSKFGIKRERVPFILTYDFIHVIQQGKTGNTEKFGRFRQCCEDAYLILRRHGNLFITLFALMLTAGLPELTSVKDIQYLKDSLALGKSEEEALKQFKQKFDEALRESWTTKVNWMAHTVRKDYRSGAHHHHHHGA
Procedure Text: PI3K KinaseGlo assay, PI3Kβ
Format: biochemical
Condition Description: KinaseGlo; 25 nM enzyme, 1 μM ATP, 30 mins, room temperature; read-out: PI3Kb/IC50
Quantity Kind: IC50 (µM)
One number for each entry, in µM.

Cc1nc(NC(=O)N2CCC[C@H]2C(N)=O)sc1-c1ccnc(C2CC2)n1 ... 3.5
NC(=O)[C@@H]1CCCN1C(=O)Nc1ncc(-c2ccnc(C3(C(F)(F)F)CCC3)c2)s1 ... 4.49
CC(C)(c1cc(-c2cnc(NC(=O)N3CCC[C@H]3C(N)=O)s2)ccn1)C(F)(F)F ... 3.87

Kindly give each listed record's IC50.
1. COc1ccc(C(C)(C)c2cc(-c3sc(NC(=O)N4CCC[C@H]4C(N)=O)nc3C)ccn2)cc1
2. Cc1nc(NC(=O)N2CCC[C@H]2C(N)=O)sc1-c1ccnc(C(C)(C)C)c1
3. Cc1nc(NC(=O)N2CCC[C@H]2C(N)=O)sc1-c1ccnc(-c2ccccc2F)c1
4. CC(C)(c1cc(-c2sc(NC(=O)N3CCC[C@H]3C(N)=O)nc2Cl)ccn1)C(F)(F)F
5. COc1ccc(C2(c3cc(-c4sc(NC(=O)N5CCC[C@H]5C(N)=O)nc4C)ccn3)CC2)cc1

Found:
[5.2, 4.43, 2.3, 5.52, 6.17]

###

Assayed System: PI3Kβ (Homo sapiens)
Construct: p110β(2-1070)-His; made in house; host or cells: baculovirus, Tn5 insect cells
Procedure Text: PI3K KinaseGlo assay, PI3Kβ
Format: biochemical
Quantity Kind: pIC50
One number for each entry, as −log10 of the molar value.

Lookup: Reported pIC50, compound Cc1nc(NC(=O)N2CCC[C@H]2C(N)=O)sc1-c1ccnc(C2(C)CC2)n1 : ____
Found: 5.50

###

Assayed System: PI3Kγ (Homo sapiens, UniProt P48736, Q459R)
Construct: p110γ(Δ143-[Met144-1102])-His; construct from Roger Williams lab, MRC LMB
Sequence (P48736 with tags, fused parts or gaps Q459R): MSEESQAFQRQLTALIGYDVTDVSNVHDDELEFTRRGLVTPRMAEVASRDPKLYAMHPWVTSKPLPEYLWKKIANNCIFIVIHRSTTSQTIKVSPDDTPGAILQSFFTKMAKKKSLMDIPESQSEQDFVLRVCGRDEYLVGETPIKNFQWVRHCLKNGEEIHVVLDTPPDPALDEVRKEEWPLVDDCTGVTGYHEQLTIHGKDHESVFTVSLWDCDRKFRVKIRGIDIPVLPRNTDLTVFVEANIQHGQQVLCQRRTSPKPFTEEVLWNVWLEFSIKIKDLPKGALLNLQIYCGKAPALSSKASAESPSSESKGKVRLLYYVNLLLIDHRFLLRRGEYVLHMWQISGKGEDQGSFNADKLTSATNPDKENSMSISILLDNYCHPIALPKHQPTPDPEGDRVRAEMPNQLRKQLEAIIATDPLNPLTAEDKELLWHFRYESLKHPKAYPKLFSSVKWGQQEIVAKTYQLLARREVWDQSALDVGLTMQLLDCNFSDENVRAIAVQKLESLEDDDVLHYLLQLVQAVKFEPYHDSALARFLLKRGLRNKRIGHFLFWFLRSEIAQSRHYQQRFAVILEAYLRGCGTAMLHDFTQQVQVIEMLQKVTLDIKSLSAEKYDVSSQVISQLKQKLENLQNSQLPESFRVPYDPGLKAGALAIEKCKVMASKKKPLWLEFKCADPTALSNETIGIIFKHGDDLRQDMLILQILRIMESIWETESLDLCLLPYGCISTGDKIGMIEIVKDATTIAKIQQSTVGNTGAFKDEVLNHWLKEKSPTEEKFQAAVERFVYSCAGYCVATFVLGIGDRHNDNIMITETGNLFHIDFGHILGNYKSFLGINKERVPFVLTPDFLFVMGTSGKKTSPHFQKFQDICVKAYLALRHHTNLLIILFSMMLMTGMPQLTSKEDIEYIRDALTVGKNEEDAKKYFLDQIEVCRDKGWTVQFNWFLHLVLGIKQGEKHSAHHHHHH
Procedure Text: PI3K KinaseGlo assay, PI3Kγ
Condition Description: 150 nM enzyme, 1 μM ATP, 90 mins, room temperature, read-out: PI3Kg/IC50
Quantity Kind: IC50

Some entries whose results are on file:
Cc1nc(NC(=O)N2CCC[C@H]2C(N)=O)sc1-c1ccnc(C(C)(C)C(F)(F)F)n1 ... 451 nM
Cc1nc(NC(=O)N2CCC[C@H]2C(N)=O)sc1-c1ccnc(C(C)(C)C)c1 ... 680 nM
Cc1nc(NC(=O)N2CCC[C@H]2C(N)=O)sc1-c1ccnc(-c2ccccc2F)c1 ... 362 nM
Cc1nc(NC(=O)N2CCC[C@H]2C(N)=O)sc1-c1ccnc(C2(C)CC2)n1 ... 858 nM
Cc1nc(NC(=O)N2CCC[C@H]2C(N)=O)sc1-c1ccnc(C2(C)CC2)c1 ... 2050 nM

Kindly give each listed record's IC50.
1. COc1ccc(C2(c3cc(-c4sc(NC(=O)N5CCC[C@H]5C(N)=O)nc4C)ccn3)CC2)cc1
2. Cc1nc(NC(=O)N2CCC[C@H]2C(N)=O)sc1-c1ccnc(Cc2c(Cl)cccc2Cl)n1
3. CCN(CC)c1nccc(-c2sc(NC(=O)N3CCC[C@H]3C(N)=O)nc2C)n1

Found:
1: 684 nM; 2: 1870 nM; 3: 790 nM

Kindly give each listed record's IC50.
1. CC(C)(c1cc(-c2sc(NC(=O)N3CCC[C@H]3C(N)=O)nc2Cl)ccn1)C(F)(F)F
2. CC(C)(c1cc(-c2cnc(NC(=O)N3CCC[C@H]3C(N)=O)s2)ccn1)C(F)(F)F
3. Cc1nc(NC(=O)N2CCC[C@H]2C(N)=O)sc1-c1ccnc(C2CC2)n1

Found:
4450 nM
352 nM
917 nM

Kindly give each listed record's IC50.
1. COc1ccc(C(C)(C)c2cc(-c3sc(NC(=O)N4CCC[C@H]4C(N)=O)nc3C)ccn2)cc1
2. Cc1nc(NC(=O)N2CCC[C@H]2C(N)=O)sc1-c1cncc(C2CC2)n1
3. Cc1nc(NC(=O)N2CCC[C@H]2C(N)=O)sc1-c1ccnc(-c2ccccc2F)n1

Found:
["1560 nM", "435 nM", "3480 nM"]

Kindly give each listed record's IC50.
1. Cc1nc(NC(=O)N2CCC[C@H]2C(N)=O)sc1-c1ccnc(C2(C#N)CC2)c1
2. NC(=O)[C@@H]1CCCN1C(=O)Nc1ncc(-c2ccnc(C3(C(F)(F)F)CCC3)c2)s1

Found:
1. 612 nM
2. 183 nM
